For each record, write down the corresponding pEC50.
- Target Or System: Muscarinic acetylcholine receptor M4 (Rattus norvegicus)
- Sequence (P08485 as listed by the source): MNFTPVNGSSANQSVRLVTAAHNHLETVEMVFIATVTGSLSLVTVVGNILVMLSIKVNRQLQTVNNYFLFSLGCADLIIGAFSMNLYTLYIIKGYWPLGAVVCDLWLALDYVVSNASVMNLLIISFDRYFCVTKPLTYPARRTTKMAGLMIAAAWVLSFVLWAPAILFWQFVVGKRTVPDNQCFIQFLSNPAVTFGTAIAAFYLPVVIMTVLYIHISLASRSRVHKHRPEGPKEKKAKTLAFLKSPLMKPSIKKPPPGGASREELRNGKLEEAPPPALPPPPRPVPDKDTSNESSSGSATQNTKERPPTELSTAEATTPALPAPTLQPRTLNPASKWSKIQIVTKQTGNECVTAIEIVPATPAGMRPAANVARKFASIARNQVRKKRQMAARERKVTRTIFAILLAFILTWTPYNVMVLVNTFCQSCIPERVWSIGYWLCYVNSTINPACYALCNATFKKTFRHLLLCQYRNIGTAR
- Method: M4 receptor positive allosteric modulators, SAR follow-up, cell-based, rat M4, analogs (AID 1938)
One number for each entry, as −log10 of the molar value.

What pEC50 value was documented for this compound, COc1ccc(CNC(=O)c2sc3nc(OCc4ccncc4)cc(C)c3c2N)cc1 ? 5.71

What pEC50 value was documented for this compound, Cc1cc(C)c2c(N)c(C(=O)NCc3ccc4c(c3)OCO4)sc2n1 ? 6.39

Okay, next one:
What pEC50 value was documented for this compound, Cc1cc(OCc2ccncc2)nc2sc(C(=O)NCc3cccc(F)c3F)c(N)c12 ? 5.78
